Tested on: OVCAR-8
Assay: NCI tumour cell line growth inhibition, 48 h
Calls of active or inactive are those of the source. Rule as the data show it: active = GI50 up to about 1.1 µM and inactive = higher.
Outcomes: 1.0 = active, 0.0 = inactive

CC(CC(=O)Nc1ccc(NC(=O)CC(C)/N=N\C(N)=S)cc1)/N=N\C(N)=S (stereo unspecified) ... 0.0
C=CCNC1=C2C[C@@H](C)C[C@@H](OC)[C@H](OC(=O)CCN(C)C)[C@H](C)/C=C(\C)[C@@H](OC(N)=O)[C@H](OC)/C=C\C=C(/C)C(=O)NC(=CC1=O)C2=O ... 1.0
c1ccc2c(c1)SCCCSCCCS2 ... 0.0
O=Cc1[nH]c2ccccc2c1Br ... 0.0
CC1(C)C/C(=N/O)c2c(nc3ccc4ccccc4c3c2-c2ccc(Cl)cc2)C1 ... 0.0
CC(=O)N1C(Nc2ccccc2)CCN1c1ccccc1 (stereo unspecified) ... 0.0
CC(=O)OC(C)c1cc2c(s1)C(=O)c1ccsc1C2=O (stereo unspecified) ... 1.0
O=C1C2=C(C3=NCCc4c[nH]c1c43)c1c(cc(Br)c(O)c1Br)CCN2 ... 0.0
S=C(S)N1CCN(c2ccc(Cl)c(Cl)c2)CC1 ... 0.0
Cc1ccccc1NC(=O)CC(=O)NNC(Sc1ccccc1)c1cc(/N=N/c2ccc(Br)cc2)ccc1O (stereo unspecified) ... 1.0
CC1(C)O[C@H]2[C@@H]3N=C(c4ccccc4)O[C@@H]3C=C[C@H]2O1 ... 0.0
Oc1ccc2c(c1)OCC(O)(c1ccccc1O)C2 (stereo unspecified) ... 0.0
Sc1nnc(C23CC4CC(CC(C4)C2)C3)n1-c1ccc(Cl)cc1 ... 0.0
CC(C)(C)OC(=O)NCCCCC(NC(=O)OCc1ccccc1)C(N)=O (stereo unspecified) ... 0.0
COc1ccccc1NC(=O)C1=C(C)NC(C)=C(C(=O)Nc2ccccc2OC)C1c1ccccc1Cl ... 0.0
CCOC(=O)C(C(N)=O)C1=Nc2cc([N+](=O)[O-])ccc2N/C1=C\C(=O)c1ccc(C)cc1 (stereo unspecified) ... 0.0
CCOC(=O)CN(CC)C(=O)NC12CC3CC(CC(C3)C1)C2 ... 0.0
C/C(=N/NS(=O)(=O)c1c(C)cc(C)cc1C)c1cccc[n+]1[O-] ... 0.0
CC(=O)[C@H]1[C@@H](OCc2ccccc2)O[N+]([O-])=C(C)[C@@H]1c1ccccc1 ... 0.0
Nc1c(/C=C/c2cc3cc(C4=NCCN4)ccc3o2)[nH]c2cc(C3=NCCN3)ccc12 ... 0.0
c1ccc(-c2csc3ncn4cnnc4c23)cc1 ... 0.0

###

System: SK-MEL-28
Test: NCI tumour cell line growth inhibition, 48 h
Active and inactive are the calls of the source. Rule as the data show it: active = GI50 up to about 1.1 µM and inactive = higher.
Quick reference for GI50 among some molecules
quantity_name: GI50

COP(=O)(/C=C/C(NC(=O)C(Cl)(Cl)Cl)c1ccccc1)OC (centres undefined) ... > 100 µM (inactive)
CCOC(=O)C1=C(O)C(=O)c2ccccc2C1=O ... > 100 µM (inactive)
O=C1Cc2c([nH]c3ccc(Br)cc23)-c2cc(Br)ccc2N1 ... > 100 µM (inactive)
COc1ccccc1OCC(COC(=O)Nc1ccccc1)OC(=O)Nc1ccccc1 (centres undefined) ... > 100 µM (inactive)
COc1ccccc1NC(=O)C1=C(C)NC(C)=C(C(=O)Nc2ccccc2OC)C1c1ccccc1Cl ... > 100 µM (inactive)
COc1cc2cc(C(=O)N3CC(CCl)c4ccc([N+](C)(C)Cc5ccccc5[N+](=O)[O-])cc43)[nH]c2c(OC)c1OC (centres undefined) ... 2.46 µM (inactive)
CC1CCCC2(O1)OC1CC(=O)OC1C1=C2C(=O)c2ccccc2C1=O (centres undefined) ... 2.14 µM (inactive)
CCN(CC)C(=S)SC1C(=O)NC(=O)NC1=O ... > 100 µM (inactive)
CC[C@@H]1CC[C@@H]2[C@H](CC[C@]3(C)[C@@H](OS(=O)(=O)c4ccc(C)cc4)CC[C@@H]23)[C@H]1COS(=O)(=O)c1ccc(C)cc1 ... > 100 µM (inactive)
